System: Leptospira weilii
Assay: Antimicrobial activity against Leptospira weilii isolate 6 by broth microdilution method
Assay type: functional
Conditions: Leptospira weilii, isolate 6; read-out: MIC
// NB: equality with 0.06 µg/mL counts as No; only MIC strictly below is Yes

Some entries whose results are on file:
Compound: CO/N=C(\C(=O)N[C@@H]1C(=O)N2C(C(=O)O)=C(COC(C)=O)CS[C@H]12)c1csc(N)n1 [CEFOTAXIME]
Assigned Category: Yes

Compound: O=C(O)c1cn(C2CC2)c2cc(N3CCNCC3)c(F)cc2c1=O [CIPROFLOXACIN]
Assigned Category: No

Compound: CO/N=C(\C(=O)N[C@@H]1C(=O)N2C(C(=O)[O-])=C(C[N+]3(C)CCCC3)CS[C@H]12)c1csc(N)n1 [CEFEPIME]
Assigned Category: Yes

Compound: CC[C@H]1OC(=O)[C@H](C)[C@@H](O[C@H]2C[C@@](C)(OC)[C@@H](O)[C@H](C)O2)[C@H](C)[C@@H](O[C@@H]2O[C@H](C)C[C@H](N(C)C)[C@H]2O)[C@](C)(OC)C[C@@H](C)C(=O)[C@H](C)[C@@H](O)[C@]1(C)O [CLARITHROMYCIN]
Assigned Category: Yes

Compound: C[C@H]1c2cccc(O)c2C(=O)C2=C(O)[C@]3(O)C(=O)C(C(N)=O)=C(O)[C@@H](N(C)C)[C@@H]3[C@@H](O)[C@@H]21.O [DOXYCYCLINE]
Assigned Category: No

For CC[C@H]1OC(=O)[C@H](C)[C@@H](O[C@H]2C[C@@](C)(OC)[C@@H](O)[C@H](C)O2)[C@H](C)[C@@H](O[C@@H]2O[C@H](C)C[C@H](N(C)C)[C@H]2O)[C@](C)(O)C[C@@H](C)CN(C)[C@H](C)[C@@H](O)[C@]1(C)O [AZITHROMYCIN] , is the recorded MIC below the cut-off of 0.06 µg/mL?
Yes

I'd appreciate it if you could check whether CN(C)[C@@H]1C(O)=C(C(N)=O)C(=O)[C@@]2(O)C(O)=C3C(=O)c4c(O)cccc4[C@@](C)(O)[C@H]3C[C@@H]12 [TETRACYCLINE] has MIC smaller than 0.06 µg/mL.
No

A record lists CC1(C)S[C@@H]2[C@H](NC(=O)[C@H](N)c3ccccc3)C(=O)N2[C@H]1C(=O)O [AMPICILLIN] . Is its MIC below 0.06 µg/mL?
Yes

====

Assay: Antimicrobial activity against Leptospira interrogans serovar Bataviae isolate 1 by broth microdilution method
Assay type: functional
Settings: Leptospira interrogans, isolate 1; read-out: MIC
Property Name: MIC

Field: example entries. Status: answers known.
Compound: CC1(C)S[C@@H]2[C@H](NC(=O)[C@H](N)c3ccccc3)C(=O)N2[C@H]1C(=O)O
Result: < 0.016 µg/mL
--
Compound: CC[C@H]1OC(=O)[C@H](C)[C@@H](O[C@H]2C[C@@](C)(OC)[C@@H](O)[C@H](C)O2)[C@H](C)[C@@H](O[C@@H]2O[C@H](C)C[C@H](N(C)C)[C@H]2O)[C@](C)(O)C[C@@H](C)CN(C)[C@H](C)[C@@H](O)[C@]1(C)O
Result: < 0.016 µg/mL

The value of MIC measured for the compound CO/N=C(\C(=O)N[C@@H]1C(=O)N2C(C(=O)[O-])=C(C[N+]3(C)CCCC3)CS[C@H]12)c1csc(N)n1 [CEFEPIME] turned out to be < 0.016 µg/mL

====

Tested on: Leptospira weilii
Assay: Antimicrobial activity against Leptospira weilii isolate 6 by broth microdilution method
Type: functional
Conditions: Leptospira weilii, isolate 6; read-out: MIC
Overview of recorded MIC for various compounds
State the answer as a number, implicitly in µg/mL.

Some solved entries appear below for comparison.
Molecule: CO/N=C(\C(=O)N[C@@H]1C(=O)N2C(C(=O)O)=C(CSc3nc(=O)c(O)nn3C)CS[C@H]12)c1csc(N)n1
Result Units: µg/mL
MIC: 0.06
--
Molecule: COc1c(N2C[C@@H]3CCCN[C@@H]3C2)c(F)cc2c(=O)c(C(=O)O)cn(C3CC3)c12
Result Units: µg/mL
MIC: 0.06

Field MIC (entry "C[C@H]1COc2c(N3CCN(C)CC3)c(F)cc3c(=O)c(C(=O)O)cn1c23.C[C@H]1COc2c(N3CCN(C)CC3)c(F)cc3c(=O)c(C(=O)O)cn1c23.O" ) reads 0.06
